type: physicochemical
Measure name: amount solubilized by PPG-1-PEG-9 lauryl glycol ether

{"Molecule": "CC(C)c1ccc(O)c(-c2cc(C(C)C)ccc2O)c1 [isopropyl magnolol, 5,5′-di-isopropylbiphenyl-2,2′-diol]", "Meas value": "up to 100 g per liter"}
{"Molecule": "CC(C)Cc1ccc(O)c(-c2cc(CC(C)C)ccc2O)c1 [isobutyl magnolol, 5,5′-di-isobutylbiphenyl-2,2′-diol]", "Meas value": "up to 50 g per liter"}
{"Molecule": "CCCc1ccc(O)c(-c2cc(CCC)ccc2O)c1 [propyl magnolol, 5,5′-di-n-propylbiphenyl-2,2′-diol]", "Meas value": "up to 100 g per liter"}
{"Molecule": "CCCCc1ccc(O)c(-c2cc(CCCC)ccc2O)c1 [butyl magnolol, 5,5′-di-n-butylbiphenyl-2,2′-diol]", "Meas value": "up to 50 g per liter"}
